- MEASURED_ON: FLuc-C-HiBiT (Photinus pyralis, UniProt P08659)
- Construct: firefly luciferase with C-terminal HiBiT tag, E. coli expressed
- Sequence (P08659 whole entry, looked up): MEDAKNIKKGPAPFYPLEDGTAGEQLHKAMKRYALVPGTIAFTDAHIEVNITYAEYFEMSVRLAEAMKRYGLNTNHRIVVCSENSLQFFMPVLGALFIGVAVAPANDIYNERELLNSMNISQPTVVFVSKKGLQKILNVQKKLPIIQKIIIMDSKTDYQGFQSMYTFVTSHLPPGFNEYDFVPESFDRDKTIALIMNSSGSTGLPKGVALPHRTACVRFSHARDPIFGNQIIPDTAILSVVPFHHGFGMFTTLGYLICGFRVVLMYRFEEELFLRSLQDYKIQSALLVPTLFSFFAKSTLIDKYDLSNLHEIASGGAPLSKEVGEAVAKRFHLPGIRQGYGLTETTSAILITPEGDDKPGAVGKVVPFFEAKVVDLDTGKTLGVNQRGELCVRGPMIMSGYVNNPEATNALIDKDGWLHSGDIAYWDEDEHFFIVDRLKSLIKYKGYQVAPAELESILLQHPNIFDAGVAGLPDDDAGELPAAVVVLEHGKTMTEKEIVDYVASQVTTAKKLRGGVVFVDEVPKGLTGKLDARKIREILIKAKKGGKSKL
- EXPERIMENTAL_DETAILS: biochemical
- STUDY_CONDITIONS: enzyme activity, 10 uM ATP; read-out: IC50 or SDR50 (mM) / FLuc E
So basically, if IC50 comes in under 0.01 mM it's condition met, and if it's 0.01 mM or more it's condition not met.

> print(dat)
                                   compound        label.class
1  CC1CCCN(c2ncnc3c2cnn3-c2cccc(Cl)c2)C1 (centres unmarked) [NCGC00523592-01]      condition met
2  O=C1CC(c2ccccc2)N(C(=O)CNC(=O)Nc2ccc3c(c2)OCCO3)CCCCCN1 (centres unmarked) [NCGC00465553-01]  condition not met
3  Nc1ncnc2c1ncn2[C@@H]1O[C@H](CO)[C@@H](O)[C@@H]1O [NCGC00178869-10]  condition not met

Please indicate whether the reported IC50 of COc1ccc(-c2nc3ccccc3o2)cc1NC(=O)c1cccnc1 [NCGC00103240-01] is strictly below 0.01 mM. condition not met

Please determine if COc1cccc(-c2cn3ncsc3n2)c1 [NCGC00117781-01] is below 0.01 mM in terms of IC50. condition not met

Answer whether the compound c1ccc(-n2ncc3c(N4CCCCC4)ncnc32)cc1 [NCGC00081373-03] has IC50 strictly less than 0.01 mM condition met

###

- MEASURED_ON: FLuc-N-HiBiT (firefly luciferase) (Photinus pyralis, UniProt P08659, form not given/L550V)
- Sequence (P08659 2-550 L550V, form open): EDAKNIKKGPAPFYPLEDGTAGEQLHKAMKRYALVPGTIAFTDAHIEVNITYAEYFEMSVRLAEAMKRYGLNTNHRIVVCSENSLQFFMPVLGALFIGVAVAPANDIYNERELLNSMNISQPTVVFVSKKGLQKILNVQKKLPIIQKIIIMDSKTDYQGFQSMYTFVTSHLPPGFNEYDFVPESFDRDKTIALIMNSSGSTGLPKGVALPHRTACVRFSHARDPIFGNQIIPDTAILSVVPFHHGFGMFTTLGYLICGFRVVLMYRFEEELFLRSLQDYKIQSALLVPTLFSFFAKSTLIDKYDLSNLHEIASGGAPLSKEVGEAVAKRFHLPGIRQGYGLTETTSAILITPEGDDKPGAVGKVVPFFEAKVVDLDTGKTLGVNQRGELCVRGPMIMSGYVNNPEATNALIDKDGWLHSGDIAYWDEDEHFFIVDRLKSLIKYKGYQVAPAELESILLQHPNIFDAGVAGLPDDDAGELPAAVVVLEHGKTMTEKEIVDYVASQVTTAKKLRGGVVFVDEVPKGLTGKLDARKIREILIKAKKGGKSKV
- EXPERIMENTAL_DETAILS: SDR assay, FLuc-N-HiBiT
- STUDY_CONDITIONS: SDR; ATP-independent pyrazolo pyrimidine (clade P)
OBSERVATION_TYPE: % Activity (max response)
Your reply should be a number followed by the unit it is expressed in.

// solved cases for % Activity (max response) follow
> print(dat)
                                   compound           observation.type  reported.value
1  O=c1cc(N2CCOCC2)nc2c3ccccc3ccn12 [Compound 401]  % Activity (max response)          29.04%
2  CC1CCCN(c2ncnc3c2cnn3-c2ccc(Cl)cc2)C1 (stereo not shown) [Compound 383]  % Activity (max response)         116.20%
3  CC1CCCN(c2ncnc3c2cnn3-c2ccccc2)C1 (stereo not shown) [Compound 381]  % Activity (max response)          79.86%

Give the measured % Activity (max response) of c1ccc(-n2ncc3c(N4CCCCC4)ncnc32)cc1 [Compound 373] . 80.68%

###

For each record, write down the corresponding pSDR50 (clade A').
- MEASURED_ON: FLuc-N-HiBiT (firefly luciferase) (Photinus pyralis, UniProt P08659, form not given/L550V)
- EXPERIMENTAL_DETAILS: SDR assay, FLuc-N-HiBiT
- STUDY_CONDITIONS: substituted indoline (clade A'); - ATP
Answers are plain numbers.

> print(dat)
                                smiles.code  reported.value
1  COc1ccc(NC(=O)N2CCc3c(C(=O)N(C)Cc4ccco4)cccc32)cc1            3.60
2  Cc1ccc(NC(=O)N2CCc3c(C(=O)NCc4ccco4)cccc32)cc1            5.17
3  CN(Cc1ccccc1)C(=O)c1cccc2c1CCN2C(=O)Nc1ccccc1            5.03
4      O=C(O)c1cccc2c1CCN2C(=O)Nc1ccc(F)cc1            4.92
5  CCN1CCN(CCNC(=O)c2cccc3c2CCN3C(=O)Nc2ccc(C)cc2)CC1            4.11

Okay, here is my list. What is pSDR50 (clade A') for each of these?
1. COc1ccc(NC(=O)N2CCc3c(C(=O)N(C)C)cccc32)cc1
2. CN(Cc1ccco1)C(=O)c1cccc2c1CCN2C(=O)Nc1ccccc1
3. O=C(NCCc1cccnc1)c1cccc2c1CCN2C(=O)Nc1ccc(F)cc1
4. CNC(=O)c1cccc2c1CCN2C(=O)Nc1ccc(C)cc1

1. 4.62
2. 2.52
3. 2.73
4. 4.88
